# System: Human breast adenocarcinoma cell MCF7
# assayText: cells
# studyConditions: MCF7, read-out: LC50 (50% lethal concentration)
observable: CC50 (µg/mL)
Respond numerically; units are µg/mL and should not be typed.

Reference set, count: 2
compound | resultUnits | CC50
C=C(C)[C@@H]1CC[C@@]2(C)CC1c1c(O)c3c(c(CC=C(C)C)c1O2)O[C@]12C(=C[C@@H]4CC1C(C)(C)O[C@]2(C/C=C(/C)C(=O)O)C4=O)C3=O [Gh-2603-1, epigambogellic acid] | µg/mL | 4.2
CC(C)=CCC[C@@]1(C)C=Cc2c(O)c3c(c(CC=C(C)C)c2O1)O[C@]12C(=C[C@@H]4CC1C(C)(C)O[C@]2(C/C=C(/CO)C(=O)O)C4=O)C3=O [Gh-1602, 30-hydroxyepigambogic acid] | µg/mL | 4

Pending compound:
Query :: Which value of CC50 has been reported for C=C(C)C1CC[C@]2(C)C[C@H]1c1c(O)c3c(c(CC=C(C)C)c1O2)O[C@]12C(=CC4CC1C(C)(C)O[C@]2(C/C=C(/C)C(=O)O)C4=O)C3=O (stereo partly drawn) in the records?
Result :: 4.2

====

Item-by-item account of LC50 (50% lethal concentration)
# Test system: Human umbilical venal epithelial cell (HUVEC)
# assayText: in vitro
# studyConditions: HUVEC
# From the text: The in vitro anti-cancer test was primarily used to detect the effect of a candidate drug on cancer cell proliferation. The working principle involved therein is the ability of viable cells to shift alamarBlue (AbD Serotec, UK) from its originally non-fluorescent oxidized state (non-fluorescent, blue) to a reduced form (fluorescent, red) having fluorescence via metabolic reaction. […]
Respond numerically; units are µg/mL and should not be typed.

Reference set, count: 4
compound | observable | recordedMeasurement
CC(C)=CCC/C(C)=C/Cc1c(O)c(CC=C(C)C)c2c(c1O)C(=O)C1=C[C@@H]3CC4C(C)(C)O[C@](C/C=C(\C)C(=O)O)(C3=O)[C@@]14O2 | LC50 (50% lethal concentration) | 11
CC(C)=CCC[C@]1(C)C=Cc2c(O)c3c(c(CC=C(C)C)c2O1)O[C@]12C(=C[C@@H]4CC1C(C)(C)OC2(C/C=C(/C)C(=O)O)C4=O)C3=O | LC50 (50% lethal concentration) | 1.6
CC(C)=CCc1c2c(c(O)c3c1O[C@]14C(=C[C@@H]5CC1C(C)(C)O[C@]4(C/C=C(\C)C=O)C5=O)C3=O)C=CC(C)(C)O2 | LC50 (50% lethal concentration) | 1.8
CC(C)=CCC[C@@]1(C)C=Cc2c(O)c3c(c(CC=C(C)C)c2O1)O[C@]12C(=C[C@@H]4CC1C(C)(C)O[C@]2(C/C=C(\C)C(=O)O)C4=O)C3=O [Gh-1642, epiisogambogic acid] | LC50 (50% lethal concentration) | 1.3

Pending compound:
Query :: Which value of LC50 (50% lethal concentration) has been reported for CC(C)=CCC/C(C)=C/Cc1c(O)c(CC=C(C)C)c2c(c1O)C(=O)C1=C[C@@H]3CC4C(C)(C)O[C@](C/C=C(/C)C(=O)O)(C3=O)[C@@]14O2 in the records?
Result :: 2.3

====

# Tested on: Human lung carcinoma cell A549
# assayText: cells
# studyConditions: A549, read-out: LC50 (50% lethal concentration)
# Description: The in vitro anti-cancer test was primarily used to detect the effect of a candidate drug on cancer cell proliferation. The working principle involved therein is the ability of viable cells to shift alamarBlue (AbD Serotec, UK) from its originally non-fluorescent oxidized state (non-fluorescent, blue) to a reduced form (fluorescent, red) having fluorescence via metabolic reaction. […]
Threshold-based label: CC50 under 0.7 µg/mL gives satisfied, CC50 not under 0.7 µg/mL gives not satisfied.

Study these solved cases before continuing.
molecule | labelClass
CC(C)=CCC[C@@]1(C)C=Cc2c(O)c3c(c(CC(O)C(C)(C)O)c2O1)O[C@]12C(=C[C@@H]4CC1C(C)(C)OC2(C/C=C(/C)C(=O)O)C4=O)C3=O (stereo partly drawn) [Gh-1036, epiformoxanthone F] | satisfied
CC(C)=CCC[C@@]1(C)C=Cc2c(O)c3c(c(CC=C(C)C)c2O1)O[C@]12C(=C[C@@H]4CC1C(C)(C)O[C@]2(C/C=C(/CO)C(=O)O)C4=O)C3=O [Gh-1602, 30-hydroxyepigambogic acid] | not satisfied
CC(C)=CCC[C@]1(C)C=Cc2c(O)c3c(c(CC=C(C)C)c2O1)O[C@]12C(=C[C@@H]4CC1C(C)(C)O[C@]2(C/C=C(\C)C(=O)O)C4=O)C3=O | not satisfied

Query :: Answer whether the molecule CC(C)=CCC[C@]1(C)C=Cc2c(O)c3c(c(CC=C(C)C)c2O1)O[C@]12C(=C[C@@H]4CC1C(C)(C)O[C@]2(C/C=C(/CO)C(=O)O)C4=O)C3=O [Gh-1601-A, 30-hydroxygambogic acid] has CC50 strictly less than 0.7 µg/mL
Result :: not satisfied

Query :: Answer whether the molecule CC(C)=CCC[C@]1(C)C=Cc2c(O)c3c(c(CC4OC4(C)C)c2O1)O[C@]12C(=C[C@@H]4CC1C(C)(C)OC2(C/C=C(/C)C(=O)O)C4=O)C3=O (stereo partly drawn) has CC50 strictly less than 0.7 µg/mL
Result :: not satisfied

Query :: Answer whether the molecule C=C(C)C1CC[C@@]2(C)Oc3c(CC=C(C)C)c4c(c(O)c3[C@@H]1C2O)C(=O)C1=C[C@@H]2CC3C(C)(C)OC(C/C=C(/C)C(=O)O)(C2=O)[C@@]13O4 (stereo partly drawn) [Gh-1050, 3α-hydroxygambogellic acid] has CC50 strictly less than 0.7 µg/mL
Result :: not satisfied

Query :: Answer whether the molecule C=C(C)C1CC[C@]2(C)C[C@H]1c1c(O)c3c(c(CC=C(C)C)c1O2)O[C@]12C(=CC4CC1C(C)(C)O[C@]2(C/C=C(/C)C(=O)O)C4=O)C3=O (stereo partly drawn) has CC50 strictly less than 0.7 µg/mL
Result :: satisfied

Query :: Answer whether the molecule CC(C)=CCc1c2c(c(O)c3c1O[C@]14C(=C[C@@H]5CC1C(C)(C)OC4(C/C=C(/C)C(=O)O)C5=O)C3=O)C=C[C@@](C)(C/C=C/C(C)(C)O)O2 has CC50 strictly less than 0.7 µg/mL
Result :: not satisfied

Query :: Answer whether the molecule C=C(C)[C@@H]1CC[C@@]2(C)CC1c1c(O)c3c(c(CC=C(C)C)c1O2)O[C@]12C(=C[C@@H]4CC1C(C)(C)O[C@]2(C/C=C(/C)C(=O)O)C4=O)C3=O [Gh-2603-1, epigambogellic acid] has CC50 strictly less than 0.7 µg/mL
Result :: satisfied

Query :: Answer whether the molecule CC(C)=CCc1c2c(c(O)c3c1O[C@]14C(=C[C@@H]5CC1C(C)(C)OC4(C/C=C(/C)C(=O)O)C5=O)C3=O)C=C[C@@](C)(CCC(O)C(C)(C)O)O2 (stereo partly drawn) has CC50 strictly less than 0.7 µg/mL
Result :: satisfied

Query :: Answer whether the molecule C=C(C)C(O)CC[C@]1(C)C=Cc2c(O)c3c(c(CC=C(C)C)c2O1)O[C@]12C(=C[C@@H]4CC1C(C)(C)OC2(C/C=C(/C)C(=O)O)C4=O)C3=O (stereo partly drawn) has CC50 strictly less than 0.7 µg/mL
Result :: not satisfied

Query :: Answer whether the molecule CC(C)=CCC[C@@]1(C)C=Cc2c(O)c3c(c(CC4OC4(C)C)c2O1)O[C@]12C(=C[C@@H]4CC1C(C)(C)OC2(C/C=C(/C)C(=O)O)C4=O)C3=O (stereo partly drawn) [Gh-3351, epiformoxanthone E] has CC50 strictly less than 0.7 µg/mL
Result :: not satisfied

====

# System: Human promyelocytic leukemia cell HL-60
# assayText: cells
# studyConditions: HL-60, read-out: IC50 (50% inhibition concentration)
observable: IC50 (µg/mL)
Respond numerically; units are µg/mL and should not be typed.

compound | resultUnits | IC50
CC(C)=CCC[C@@]1(C)C=Cc2c(O)c3c(c(CC4OC4(C)C)c2O1)O[C@]12C(=C[C@@H]4CC1C(C)(C)OC2(C/C=C(/C)C(=O)O)C4=O)C3=O (stereo partly drawn) [Gh-3351, epiformoxanthone E] | µg/mL | 11.7
C=C(C)[C@@H]1CC[C@@]2(C)CC1c1c(O)c3c(c(CC=C(C)C)c1O2)O[C@]12C(=C[C@@H]4CC1C(C)(C)O[C@]2(/C=C/C(C)C(=O)O)C4=O)C3=O (stereo partly drawn) [Gh-2507, β-epigambogellic acid] | µg/mL | 0.2
CC(C)=CCC[C@@]1(C)C=Cc2c(O)c3c(c(C(O)C4OC4(C)C)c2O1)O[C@]12C(=C[C@@H]4CC1C(C)(C)OC2(C/C=C(/C)C(=O)O)C4=O)C3=O (stereo partly drawn) [Gh-3311, epiformoxanthone G] | µg/mL | 1.4
CC(C)=CCc1c2c(c(O)c3c1O[C@]14C(=C[C@@H]5CC1C(C)(C)OC4(C/C=C(/C)C(=O)O)C5=O)C3=O)C=C[C@@](C)(C/C=C/C(C)(C)O)O2 [Gh-3272, formoxanthone H] | µg/mL | 1.7
CC(C)=CCC[C@]1(C)C=Cc2c(O)c3c(c(C(O)C4OC4(C)C)c2O1)O[C@]12C(=C[C@@H]4CC1C(C)(C)OC2(C/C=C(/C)C(=O)O)C4=O)C3=O (stereo partly drawn) [Gh-3353, formoxanthone G] | µg/mL | 1.3

Pending compound:
Query :: Which value of IC50 has been reported for C=C(C)C(O)CC[C@]1(C)C=Cc2c(O)c3c(c(CC=C(C)C)c2O1)O[C@]12C(=C[C@@H]4CC1C(C)(C)OC2(C/C=C(/C)C(=O)O)C4=O)C3=O (stereo partly drawn) [Gh-3291, formoxanthone D] in the records?
Result :: 4.5
